Molecular target: NAD-dependent protein deacylase sirtuin-5, mitochondrial (Homo sapiens) (UniProt Q9NXA8)
Sequence (Q9NXA8 37-310 limits assumed): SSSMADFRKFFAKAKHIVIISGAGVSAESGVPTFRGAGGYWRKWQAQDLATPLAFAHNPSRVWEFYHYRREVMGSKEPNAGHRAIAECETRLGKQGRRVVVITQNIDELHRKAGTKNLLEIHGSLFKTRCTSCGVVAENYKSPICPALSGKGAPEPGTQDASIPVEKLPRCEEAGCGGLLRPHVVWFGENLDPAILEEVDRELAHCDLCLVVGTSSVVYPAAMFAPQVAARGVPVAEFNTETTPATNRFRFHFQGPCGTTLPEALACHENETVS
Assay: Substrate activity at human N-terminal His-tagged SIRT5 (34 to 302 residues) expressed in Escherichia coli at 5 uM measured after 2 hrs in presence of NAD+ and trypsin by fluorescence assay
*1 amine or outer side, *2 acyl side, *3 side chain or, on linkers, in order; H or OH if unused. Where a SMILES comes first, the peptide text is derived from it. The star is where a group is joined. AMC = Cc1cc(=O)oc2cc(N*)ccc12; Suc = O=C(CCC(=O)[*:2])[*:1]; Decanoyl = CCCCCCCCCC(=O)*
Catalogue of Activity values
Report as a plain number; the unit RFU is understood.

Take a look at these entries with their results.
# molecule, test-system, readout-type, readout-number
rows = [
    ("CCCCCCCCCC(=O)NCCCC[C@H](NC(=O)[C@@H](NC(=O)[C@H](CO)NC(=O)[C@H](CO)NC(C)=O)[C@@H](C)CC)C(=O)Nc1ccc2c(C)cc(=O)oc2c1 (Ac-SSIK(Decanoyl)-{AMC})", "NAD-dependent protein deacylase sirtuin-5, mitochondrial (Homo sapiens) (UniProt Q9NXA8)", "Activity", 0.39),
    ("CC(=O)NCCCC[C@H](NC(=O)[C@H](CO)NC(=O)[C@H](Cc1ccccc1)NC(=O)[C@H](CC(=O)O)NC(C)=O)C(=O)Nc1ccc2c(C)cc(=O)oc2c1 (Ac-DFSK(Ac)-{AMC})", "NAD-dependent protein deacylase sirtuin-5, mitochondrial (Homo sapiens) (UniProt Q9NXA8)", "Activity", 0.29),
    ("CC(=O)N[C@@H](Cc1cnc[nH]1)C(=O)N[C@@H](Cc1ccccc1)C(=O)N[C@@H](CO)C(=O)N[C@@H](CCCCNC(=O)CCC(=O)O)C(=O)Nc1ccc2c(C)cc(=O)oc2c1 (Ac-HFSK(Suc)-{AMC})", "NAD-dependent protein deacylase sirtuin-5, mitochondrial (Homo sapiens) (UniProt Q9NXA8)", "Activity", 8.98),
]

Requested field: Activity. Item: CCCCCCCCCC(=O)NCCCC[C@H](NC(=O)[C@H](CCCCN)NC(=O)[C@@H]1CCCN1C(=O)[C@H](CC(N)=O)NC(C)=O)C(=O)Nc1ccc2c(C)cc(=O)oc2c1 (Ac-NPKK(Decanoyl)-{AMC})
0.34

Could you do the same for CC(=O)NCCCC[C@H](NC(=O)[C@H](CC(C)C)NC(=O)[C@H](CCCCN)NC(=O)[C@H](Cc1ccc(O)cc1)NC(C)=O)C(=O)Nc1ccc2c(C)cc(=O)oc2c1 (Ac-YKLK(Ac)-{AMC}) , please?
0.31

Now the molecule CC(=O)NCCCC[C@H](NC(=O)[C@H](CCCNC(=N)N)NC(=O)[C@H](C)NC(=O)[C@@H](NC(C)=O)[C@@H](C)O)C(=O)Nc1ccc2c(C)cc(=O)oc2c1 (Ac-TARK(Ac)-{AMC})
0.27
